target: T1, hFLAG-EGF34+NRR-His6 (101V), the human Notch1 NRR immunogen (human Notch1 V1307-Q1733) (human, UniProt P46531 1307-1733); assay: SPR (BIAcore-3000), IgG captured on rabbit anti-human IgG, NRR1-ECD protein injected 3.9-500 nM, 25 C, 1:1 Langmuir
T1 construct: Secreted from Sf-9 cells; also called hNotch1 NRR; human NRR1
T1 sequence (P46531 other isoform, or with tags, fused parts or gaps limits assumed): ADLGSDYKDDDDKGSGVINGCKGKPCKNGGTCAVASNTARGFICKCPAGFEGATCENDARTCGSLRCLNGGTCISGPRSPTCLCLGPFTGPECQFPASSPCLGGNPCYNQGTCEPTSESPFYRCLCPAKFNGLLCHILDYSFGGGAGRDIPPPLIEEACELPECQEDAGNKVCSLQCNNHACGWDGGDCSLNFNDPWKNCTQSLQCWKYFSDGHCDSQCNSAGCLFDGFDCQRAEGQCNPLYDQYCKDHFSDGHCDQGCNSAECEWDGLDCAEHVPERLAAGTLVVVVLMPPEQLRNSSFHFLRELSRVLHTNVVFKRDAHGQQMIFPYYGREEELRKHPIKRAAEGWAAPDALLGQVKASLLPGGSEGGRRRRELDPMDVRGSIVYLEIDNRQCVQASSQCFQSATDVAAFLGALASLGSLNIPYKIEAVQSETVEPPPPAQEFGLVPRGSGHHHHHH
Parameter: kon (M⁻¹ s⁻¹)

INSERT INTO assay_data (binder, parameter, recorded_result) VALUES
  ('Antibody A-3 (antibody, V domains shown) VH: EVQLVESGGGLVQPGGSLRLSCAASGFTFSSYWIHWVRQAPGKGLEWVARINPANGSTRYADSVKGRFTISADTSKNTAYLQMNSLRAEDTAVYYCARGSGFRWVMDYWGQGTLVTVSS VL: DIQMTQSPSSLSASVGDRVTITCRASQDVSTAVAWYQQKPGKAPKLLIYSASFLYSGVPSRFSGSGSGTDFTLTISSLQPEDFATYYCQQSFSTPATFGQGTKVEIKR', 'kon', 68000);
